# System under test: Nucleotide-binding oligomerization domain-containing protein 1 (Homo sapiens, UniProt Q9Y239)
# Sequence (Q9Y239 whole entry, the tested form may be a part): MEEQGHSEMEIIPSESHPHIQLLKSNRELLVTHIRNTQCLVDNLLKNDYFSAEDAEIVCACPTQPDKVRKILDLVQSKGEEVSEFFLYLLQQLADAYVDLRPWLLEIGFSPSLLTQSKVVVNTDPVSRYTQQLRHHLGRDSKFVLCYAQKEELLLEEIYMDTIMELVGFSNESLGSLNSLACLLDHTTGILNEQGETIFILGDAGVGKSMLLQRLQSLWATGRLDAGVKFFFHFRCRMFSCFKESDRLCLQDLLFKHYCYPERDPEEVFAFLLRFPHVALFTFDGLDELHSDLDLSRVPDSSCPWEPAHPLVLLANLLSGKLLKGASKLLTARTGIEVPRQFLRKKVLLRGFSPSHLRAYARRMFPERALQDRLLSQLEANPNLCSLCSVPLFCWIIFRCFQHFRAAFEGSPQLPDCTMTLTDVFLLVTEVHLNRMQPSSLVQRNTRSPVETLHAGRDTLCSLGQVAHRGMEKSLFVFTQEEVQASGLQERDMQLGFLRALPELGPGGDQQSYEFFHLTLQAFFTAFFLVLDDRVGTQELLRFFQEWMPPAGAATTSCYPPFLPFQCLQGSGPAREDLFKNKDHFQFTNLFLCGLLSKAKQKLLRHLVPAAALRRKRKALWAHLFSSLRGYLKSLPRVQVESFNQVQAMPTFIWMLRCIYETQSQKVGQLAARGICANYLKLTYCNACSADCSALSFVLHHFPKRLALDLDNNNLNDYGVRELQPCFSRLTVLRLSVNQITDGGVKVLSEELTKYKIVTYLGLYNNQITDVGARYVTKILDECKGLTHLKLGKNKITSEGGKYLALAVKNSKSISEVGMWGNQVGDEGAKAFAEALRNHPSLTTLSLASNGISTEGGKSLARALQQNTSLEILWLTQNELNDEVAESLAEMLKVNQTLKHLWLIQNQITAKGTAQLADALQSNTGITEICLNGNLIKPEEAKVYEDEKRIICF
# Experimental details: Agonist activity at human NOD-1 expressed in human HEK293 cells assessed as NF-kappaB induction by spectrophotometric analysis
pEC50: −log10 of the molar value.
Readout: pEC50

[a] CCCCCCCCCCCOC(=O)[C@@H](CCC(=O)NC(CCCC(N)C(=O)O)C(=O)O)NC(=N)N (some centres undefined)
[b] CCCCCCCCCCCC(=O)N[C@H](CCC(=O)NC(CCCC(N)C(=O)OCC)C(=O)OCC)C(=O)O (some centres undefined)
[c] CCCCCCCCCCCC(=O)NC(CCCC(NC(=O)CC[C@@H](NC(=O)CCCCCCCCCCC)C(=O)O)C(=O)O)C(=O)O (some centres undefined)
[d] CCCCCCCCCCCOC(=O)[C@H](N)CCC(=O)NC(CCCC(N)C(=O)O)C(=O)O (some centres undefined)
// query Arrange the above in rising order of pEC50. Provide the labels, sequenced as the question asks.
// result c, a, b, d

###

# System under test: Nucleotide-binding oligomerization domain-containing protein 1 (Homo sapiens, UniProt Q9Y239)
# Experimental details: Agonist activity at human NOD-1 expressed in human HEK293 cells assessed as NF-kappaB induction by spectrophotometric analysis
Readout: EC50 (nM)

Below, each entry is followed by its recorded EC50 result.
>>> print(df.to_string())
                                   molecule  reported_value
0  CCCCCCCCCCCC(=O)N[C@H](CCC(=O)NC1CCCCNC1=O)C(=O)O (some centres undefined)            1.73
1  CCCCCCCCCCCC(=O)N[C@H](CCC(=O)NCCCC[C@@H](N)C(=O)O)C(=O)O            0.37
2  CCCCCCCCCCCC(=O)N[C@H](CCC(=O)NCCCC[C@H](N)C(=O)O)C(=O)O            0.96
3  CCCCCCCCCCCCN[C@H](CCC(=O)NC(CCCC(N)C(=O)O)C(=O)O)C(=O)O (some centres undefined)           0.023
4  CCCCCCCCCCCOC(=O)CCCC(=O)NC(CCCC(N)C(=O)O)C(=O)O (centres undefined)            0.39

[a] CCCCCCCCN(CCCCCCCC)[C@H](CCC(=O)NC(CCCC(N)C(=O)O)C(=O)O)C(=O)O (some centres undefined)
[b] CCCCCCCCCCCC(=O)N[C@H](CCC(=O)N[C@@H](CCCCN)C(=O)O)C(=O)O
// query Kindly compare a with b and tell me which has the lower EC50 figure. Please indicate the selected item by its label.
// result a

###

# System under test: Nucleotide-binding oligomerization domain-containing protein 1 (Homo sapiens)
# Experimental details: Agonist activity at human NOD-1 expressed in human HEK293 cells assessed as NF-kappaB induction by spectrophotometric analysis
Readout: EC50 (nM)

In [3]: df
Out[3]:
                                   compound  reported_value
0  CCCCCCCCCCCOC(=O)[C@@H](CCC(=O)NC(CCCC(N)C(=O)O)C(=O)O)NC(=O)CCCCCCCCCCC (some centres undefined)           0.134

[1] CCCCCCCCCCCSC(=O)[C@H](N)CCC(=O)NC(CCCC(N)C(=O)OCC)C(=O)OCC (some centres undefined)
[2] CCCCCCCCCCCNC(=O)[C@H](N)CCC(=O)NC(CCCC(N)C(=O)O)C(=O)O (some centres undefined)
// query Could you kindly indicate whether 1 or 2 has the higher EC50 value? Please indicate the selected item by its label.
// result 2
(2: 0.826 nM, 1: 0.181 nM)
